Recorded IC50 by entry
tested on: K562; assay: Cytotoxicity against human K562 cells after 72 hrs by MTT assay; type: functional, cell-based; conditions: K562, 72 h

>  <smiles>
COc1ccc(N(C)c2nc(C)nc3ccccc23)cc1OCCCC(=O)NO

>  <result-unit>
nM

>  <value-modifier>
=

>  <IC50>
63

$$$$
>  <smiles>
O=C(CCCCCCNC(=O)c1cnc(N(c2ccccc2)c2ccccc2)nc1)NO

>  <result-unit>
nM

>  <value-modifier>
>

>  <IC50>
5000

$$$$

###

Each item that follows carries a reported pIC50.
experiment: Cytotoxicity against human RPMI8226 cells after 72 hrs by MTT assay; assay type: functional, cell-based; details: RPMI-8226, 72 h
pIC50: −log10 of the molar value.

>  <smiles>
COc1ccc(N(C)c2nc(C)nc3ccccc23)cc1OCCCC(=O)NO

>  <pIC50>
7.82

$$$$
>  <smiles>
O=C(CCCCCCNC(=O)c1cnc(N(c2ccccc2)c2ccccc2)nc1)NO

>  <pIC50>
5.83

$$$$

Source of measurements: ChEMBL document CHEMBL3774354
